# study.system: Poly [ADP-ribose] polymerase 1 (Homo sapiens, UniProt P09874)
# Sequence (P09874 whole entry): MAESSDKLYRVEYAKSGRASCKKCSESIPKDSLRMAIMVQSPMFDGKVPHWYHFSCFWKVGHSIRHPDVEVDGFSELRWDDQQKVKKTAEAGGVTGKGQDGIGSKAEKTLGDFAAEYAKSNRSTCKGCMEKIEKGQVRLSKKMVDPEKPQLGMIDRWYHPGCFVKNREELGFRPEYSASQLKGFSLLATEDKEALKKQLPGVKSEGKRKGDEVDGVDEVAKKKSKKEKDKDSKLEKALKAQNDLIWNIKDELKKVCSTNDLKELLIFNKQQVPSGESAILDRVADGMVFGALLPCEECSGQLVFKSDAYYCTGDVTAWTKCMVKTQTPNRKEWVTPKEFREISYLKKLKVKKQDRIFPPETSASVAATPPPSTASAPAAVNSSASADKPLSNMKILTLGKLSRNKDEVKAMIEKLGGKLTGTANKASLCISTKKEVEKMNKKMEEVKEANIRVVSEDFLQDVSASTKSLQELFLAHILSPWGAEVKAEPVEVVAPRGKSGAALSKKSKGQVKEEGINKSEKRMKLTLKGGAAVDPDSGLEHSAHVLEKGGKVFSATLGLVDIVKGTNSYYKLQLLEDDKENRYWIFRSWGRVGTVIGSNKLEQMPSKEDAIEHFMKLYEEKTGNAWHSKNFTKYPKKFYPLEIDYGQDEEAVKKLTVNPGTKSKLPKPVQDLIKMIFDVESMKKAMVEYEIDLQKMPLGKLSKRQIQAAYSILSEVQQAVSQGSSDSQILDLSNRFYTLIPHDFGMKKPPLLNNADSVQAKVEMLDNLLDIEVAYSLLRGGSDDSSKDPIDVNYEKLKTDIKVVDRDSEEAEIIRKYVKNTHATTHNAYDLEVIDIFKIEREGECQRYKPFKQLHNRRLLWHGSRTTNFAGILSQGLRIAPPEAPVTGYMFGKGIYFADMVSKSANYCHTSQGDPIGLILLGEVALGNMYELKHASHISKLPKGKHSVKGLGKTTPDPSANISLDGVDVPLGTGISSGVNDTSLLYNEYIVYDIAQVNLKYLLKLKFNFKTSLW
# assay.name: Inhibition of PARP-1 (unknown origin)
measured.quantity: pIC50
The value called pIC50 is obtained by taking minus log10 of the concentration in mol/L.

Query: State its pIC50: COc1cccc2[nH]c3c4c(c5c(c3c12)C(=O)N(CN1CCN(C)CC1)C5=O)CCC4
Response: 7.70

====

# assay.name: Oral bioavailability in rat
# Format: ADME, organism-based
# test.settings: in vivo
measured.quantity: bioavailability

Query: State its bioavailability: Cn1ncnc1[C@H]1c2n[nH]c(=O)c3cc(F)cc(c23)N[C@@H]1c1ccc(F)cc1
Response: > 40%
